test: log P by HPLC on reversed-phase column (EEC Directive 79/831 Annex V.A8); assay type: physicochemical; conditions: reversed-phase HPLC column (C18); HPLC, neutral range pH 7.5, marked b)
# note: exactly 5 is not below, so it is not fulfilled; use fulfilled for chromatographic logP strictly under it

compound: CC(C)Oc1ccc(-c2ccc(C3CCC(c4c(F)cccc4F)=N3)cc2)cn1 (stereo not shown) [compound 7]
group: fulfilled
//
compound: Fc1cccc(F)c1C1=NC(c2ccc(-c3ccc(OCC4CC4)nc3)cc2)CC1 (stereo not shown) [compound 25]
group: fulfilled
//
compound: CCSc1ccc(-c2ccc(C3CCC(c4c(F)cccc4F)=N3)cc2)cn1 (stereo not shown) [compound 4]
group: fulfilled
//
compound: CCCOc1ccc(-c2ccc(C3CCC(c4c(F)cccc4F)=N3)cc2)cn1 (stereo not shown) [compound 5]
group: fulfilled
//
compound: Fc1cccc(F)c1C1=NC(c2ccc(-c3ccc(OC4CCCC4)nc3)cc2)CC1 (stereo not shown) [compound 21]
group: not fulfilled
